# Tested on: MS2 coat protein
# assay-remarks: apparent KD of MS2 coat protein, switch OFF state (with FMN for OFF switches, without FMN for ON switches); designed switch direction (-1 OFF switch, 1 ON switch): -1; higher = weaker reporter binding
# applied-conditions: FMN input: 0 or 200 uM; Eterna round: R93 (includes R88 designs)
endpoint-label: apparent KD of MS2 coat protein (nM)
Give the value in nM but do not write nM after it.

Below: 2 sequences and their reported apparent KD of MS2 coat protein.
- residues: "AAAAAACAUGAGGAUCACCCAUGUAAGGAUAUGACUUAAAUAAAGAAAGAAGAAAUAGUCAGAAGGUACAAAUA [Disincluded (MS2 Riboswitches - States energetically close)]"
  apparent KD of MS2 coat protein (nM): 31
- residues: "AAGACGUAAGGAUAUAUUAUGGGACAAUGAAGGAAGAUAAAACAUGAGGAUCACCCAUGUAGAAGGUGCAAAGA [JR_Exclusion2_Sub3]"
  apparent KD of MS2 coat protein (nM): 32.8

Shift focus to the following entry.
Quick one: apparent KD of MS2 coat protein for AAAAAGAUAGGAUAUACGUACAUGUCGAAAGACGUGAAGGGACAUGAGGAUCACCCAUGUAGAAGGGUUAAAAA [Mat - Exclusion 2 - JL mod - D91] ?
52.4
